# Method description: NCI Yeast Anticancer Drug Screen. Data for the bub3 strain (AID 167)
# Applied conditions: S. cerevisiae bub3 mutant strain, at 1.2 µM, stronger effect = higher value
This is part of a sample that, as a whole, favours compounds with a hit. Of some 79,000 tested, about 15% had one in any assay.
Kindly supply the reported growth inhibition values for the records listed here.
Numeric answer only, unit % assumed.

Exam item: Fill in: growth inhibition of Nc1ccc2c(c1)sc1ccccc12 is ___
Marked response: -6

Exam item: Another compound to look at: OB(O)c1ccccc1C#Cc1ccccc1B(O)O
Marked response: -7

Exam item: Another compound to look at: O=Nn1c2ccccc2c2cc([N+](=O)[O-])ccc21
Marked response: 4

Exam item: Another compound to look at: COc1ccc(N=N/C(=N\NC(=O)c2cc(Br)ccc2O)c2ccc(N(CCC#N)CCC#N)cc2OC)cc1
Marked response: 28

Exam item: Another compound to look at: O=C(/C=C/c1cccc(Br)c1)c1ccc(Cl)cc1
Marked response: -16

Exam item: Another compound to look at: O=Nc1ccc(Nc2ccccc2)cc1
Marked response: -31

Exam item: Another compound to look at: CO[C@@]12[C@H](COC(N)=O)C3=C(C(=O)C(C)=C(N)C3=O)N1C[C@@H]1N[C@@H]12
Marked response: 1

Exam item: Another compound to look at: CCCCC(CC)C(=O)Oc1ccc(C(=O)c2ccccc2)c(O)c1 (stereo unspecified)
Marked response: 21

Exam item: Another compound to look at: CN(Cc1cnc2nc(N)nc(N)c2n1)c1ccc(C(=O)NC(CCC(=O)O)C(=O)O)c2ccccc12 (stereo unspecified)
Marked response: -5

Exam item: Another compound to look at: Cc1ccc(S(=O)(=O)Nc2ccc3c(c2)C(O)c2ccccc2-3)cc1 (stereo unspecified)
Marked response: 0

Exam item: Another compound to look at: O=C1C=CC(=O)N1c1ccc(N2C(=O)C=CC2=O)cc1
Marked response: 48
